- System: HLADH (Horse Liver Alcohol Dehydrogenase)
- Test protocol: Kinetic constants for HLADH, spectrophotometric assay of NADH formation at 340 nm
- Format: biochemical, Equus caballus
- Condition context: pH 9.1, 100 mM CHES-buffer, ethanol = 100
Relative activity overview
Give just the number in %; leave the unit off.

Example results:
Identify Relative activity associated with the molecule C[C@H](N)CO [S-2-Amino-propan-1-ol]
14

Output measured Relative activity for this item: CCO [Ethanol, reference compound]
100

Give me measured Relative activity, please, for this molecule: CC(O)CN (racemic) [1-Amino-propan-2-ol (rac), 1-Amino-propan-2-ol]
0

With those in mind, consider the next molecule.
Read off the recorded Relative activity for NC[C@@H](O)c1ccccc1 [S-2-Amino-1-phenyl-ethanol]
14

====

Recorded Relative activity by entry
- System: HLADH (Horse Liver Alcohol Dehydrogenase)
- Test protocol: Kinetic constants for HLADH, spectrophotometric assay of NADH formation at 340 nm
- Assay type: biochemical, Equus caballus
- Condition context: pH 9.1, 100 mM CHES-buffer, ethanol = 100

Consider the reported Relative activity for these compounds:
Provide the reported Relative activity (system: HLADH (Horse Liver Alcohol Dehydrogenase)) for C[C@@H](N)CO [R-2-Amino-propan-1-ol]
~0%

State recorded Relative activity with HLADH (Horse Liver Alcohol Dehydrogenase), entry NC[C@H](O)c1ccccc1 [R-2-Amino-1-phenyl-ethanol] , no comment.
~0%

Okay, next one:
Lab note: record Relative activity of NCCO [2-Amino-ethanol] tested on HLADH (Horse Liver Alcohol Dehydrogenase).
~0%

Values compiled from patent US9085786B2.
